# target_under_test: Caspase-1 (Homo sapiens, UniProt P29466)
# Sequence (P29466 whole entry): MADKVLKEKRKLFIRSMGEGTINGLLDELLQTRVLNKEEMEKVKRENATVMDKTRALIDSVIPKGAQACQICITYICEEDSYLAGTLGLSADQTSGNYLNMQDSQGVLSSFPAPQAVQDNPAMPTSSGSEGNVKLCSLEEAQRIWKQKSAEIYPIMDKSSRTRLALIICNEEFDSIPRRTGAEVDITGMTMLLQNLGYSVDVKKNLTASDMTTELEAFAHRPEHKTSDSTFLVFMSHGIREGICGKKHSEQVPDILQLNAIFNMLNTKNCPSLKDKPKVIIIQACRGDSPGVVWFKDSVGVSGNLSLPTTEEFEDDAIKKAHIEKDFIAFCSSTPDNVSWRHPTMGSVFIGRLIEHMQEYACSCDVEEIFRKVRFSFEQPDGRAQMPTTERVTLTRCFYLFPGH
Square brackets hold non-standard residues; d marks the D form. Peptide text beside a SMILES is read from it. βAla = NCCC(=O)O
The entries below come with measured Ki values attached.
observed_property: Ki (nM)

{"columns": ["molecule", "comparative_sign", "measured_number"],
 "data": [
  ["CC(C)[C@H](NC(=O)CC(Cl)Cl)C(=O)N[C@@H](C)C(=O)N[C@H](C=O)CC(=O)O", "=", 28],
  ["CC(=O)N[C@@H](Cc1ccc(O)cc1)C(=O)N[C@H](C(=O)N[C@@H](C)C(=O)N[C@H](C=O)CC(=O)O)C(C)C", "=", 6],
  ["CC(=O)N[C@@H](C)C(=O)N[C@H](C=O)CC(=O)O (Ac-Ala-Asp-aldehyde)", ">", 20000],
  ["CC(=O)N[C@@H](Cc1ccc(O)cc1)C(=O)N[C@H](C(=O)N[C@@H](C)C(=O)NCCC(=O)O)C(C)C (Ac-YVA[βAla]-OH)", ">", 20000],
  ["CC(=O)N[C@@H](Cc1cc(I)c(O)c(I)c1)C(=O)N[C@H](C(=O)N[C@@H](C)C(=O)N[C@H](C=O)CC(=O)O)C(C)C", "=", 7.5],
  ["CC(=O)N[C@@H](Cc1ccc(O)cc1)C(=O)N[C@@H](C)C(=O)N[C@H](C=O)CC(=O)O (Ac-Tyr-Ala-Asp-aldehyde)", "=", 2100],
  ["CC(=O)N[C@@H](Cc1ccc(O)cc1)C(=O)N[C@H](C(=O)N[C@H](C=O)CC(=O)O)C(C)C (Ac-Tyr-Val-Asp-aldehyde)", "=", 2400]
]}
